Origin of the recorded values: paper PMC9574860

- Test system: Parkinson's disease protein 7 (PARK7/DJ1) (human)
- Sequence (Q99497 whole entry, looked up): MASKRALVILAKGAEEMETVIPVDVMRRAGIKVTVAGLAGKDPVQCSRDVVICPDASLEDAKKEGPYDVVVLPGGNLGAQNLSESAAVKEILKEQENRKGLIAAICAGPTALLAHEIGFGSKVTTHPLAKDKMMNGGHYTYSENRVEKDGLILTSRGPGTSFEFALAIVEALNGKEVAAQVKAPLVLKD
- Procedure summary: primary screen, percent inhibition; higher = more effect of the substance
- Condition description: 100 µM
In all, about 7,900 compounds went through this assay and about 400 (5.1%) showed an effect of 50% or more. This excerpt belongs to a sample that is enriched for strong results.
I'd appreciate it if you could label each record using Inhibition % and these ranges: bucket A = under 5%, bucket B = from 5% up to 20%, bucket C = 20% and over

[[record]]
compound = "C=CC(=O)N1CCCC(c2nn(C)cc2C(=O)O)C1 (stereo not drawn)"
test_system = "Parkinson's disease protein 7 (PARK7/DJ1) (human)"
classification = "bucket A"

[[record]]
compound = "C=CC(=O)N1CCOCC2(CC2)C1"
test_system = "Parkinson's disease protein 7 (PARK7/DJ1) (human)"
classification = "bucket C"

[[record]]
compound = "N#Cc1cccc(F)n1"
test_system = "Parkinson's disease protein 7 (PARK7/DJ1) (human)"
classification = "bucket A"

[[record]]
compound = "Cc1nn(C)c(C)c1C1CCCN1C1CCOC1=O (stereo not drawn)"
test_system = "Parkinson's disease protein 7 (PARK7/DJ1) (human)"
classification = "bucket A"

[[record]]
compound = "COC(=O)c1ccccc1S(=O)(=O)F"
test_system = "Parkinson's disease protein 7 (PARK7/DJ1) (human)"
classification = "bucket C"

[[record]]
compound = "C=CC(=O)Nc1cnn(C2CCOCC2)c1C"
test_system = "Parkinson's disease protein 7 (PARK7/DJ1) (human)"
classification = "bucket B"


Note: place this compound into its band. Item: "OB(O)c1ccc(OCC(F)(F)F)cc1F"
bucket B

Note: place this compound into its band. Item: "N[C@@H]1CCN(C(=O)C=Cc2cc3ccccc3o2)C1"
bucket B

Note: place this compound into its band. Item: "O=C(CCl)Nc1cccc(C(=O)N2CCSCC2)c1"
bucket B

----------
- Test system: Parkinson's disease protein 7 (PARK7/DJ1) (human)
- Procedure summary: primary screen, percent inhibition; read as competition with a fluorescent probe by fluorescence polarization; higher = more effect of the substance
- Condition description: 100 µM
- Protocol: The screen was conducted using the conditions as described above in 1536-well plates (Corning 3724) with a reaction volume of 8 μL per well. The compound library containing 7887 covalent fragments was purchased at Enamine Ltd. and received as 100 mM DMSO stocks in 384 well LDV Echo plates (Labcyte LP-0200). Stock solutions of 0.26 μM PARK7 and 80 nM JYQ-107 were prepared. […] After 2 h incubation, the FP signal was recorded on a BMG Labtech PHERAstar plate reader (λex/em 480/520 nm). […]
Hit rate of the full screen: of about 7,900 compounds, about 400 (5.1%) showed an effect of 50% or more. The sample holds strong results, similar compounds and a random draw of the others, so the mix is not that of the screen.
Observable: Inhibition % (%)
Write the value in % as a bare number.

Consider the following illustrative entries.
[[record]]
molecule = "CC(=O)Nc1ccc(NC2SC(=O)NC2=O)cc1 (stereo not shown)"
observable = "Inhibition %"
measurement = 66.6

[[record]]
molecule = "C=CC(=O)N1CCN(CC(C)C)C(=O)C1C (stereo not shown)"
observable = "Inhibition %"
measurement = 0.151

[[record]]
molecule = "O=C(CCl)NC(=O)Nc1ccc2c(c1)OCCCO2"
observable = "Inhibition %"
measurement = 7.15

[[record]]
molecule = "Cc1ccc(C(C)NC(=O)Cn2cnc(C#N)n2)cc1C (stereo not shown)"
observable = "Inhibition %"
measurement = 3.5

[[record]]
molecule = "CC(C)C1(c2ccccc2)CO1 (stereo not shown)"
observable = "Inhibition %"
measurement = 4.43

[[record]]
molecule = "C=CC(=O)N1CCC12CCOC2 (stereo not shown)"
observable = "Inhibition %"
measurement = 7.06


Please turn your attention to the following entry.
Using known records, supply Inhibition % for O=C1NC(c2ccccc2)C12CCCC2 (stereo not shown)
3.32
